Tested on: Plasmodium falciparum
ASSAY REMARKS: NOVARTIS: Inhibition of Plasmodium falciparum 3D7 (drug-susceptible) proliferation in erythrocyte-based infection assay
Assay type: functional, organism-based
SETTINGS: Plasmodium falciparum, 3D7
pEC50: −log10 of the molar value.
MEASURED ATTRIBUTE: pEC50

MOLECULE	MEASURED ATTRIBUTE	COMPARISON SYMBOL	MEASURED NUMBER
CCOC(=O)NN=C1C=C2C=CC3C(CC[C@@]4(C)C3CC3CCCCC34C(C)=O)[C@@]2(C)CC1 (some centres undefined)	pEC50	<	6.04
CCN1CCN(C(=O)CS(=O)(=O)Cc2nc(-c3cccc(OC)c3)oc2C)CC1	pEC50	<	5.90
COc1ccc(C(=O)C(C)[n+]2cccc3ccc4cccnc4c32)cc1 (centres undefined)	pEC50	=	6.71
COc1ccc(C2=C(c3ccc(OC)cc3)C3(c4ccccc4)C(=O)C2(c2ccccc2)C2C(=O)N(c4ccc(C)c(Br)c4)C(=O)C23)cc1 (centres undefined)	pEC50	=	6.13

====

Tested on: Plasmodium falciparum
ASSAY REMARKS: NOVARTIS: Inhibition of Plasmodium falciparum W2 (drug-resistant) proliferation in erythrocyte-based infection assay
Format: functional, organism-based
SETTINGS: Plasmodium falciparum, W2; read-out: EC50
# EC50 per entry

COMPOUND	RESULT UNITS	COMPARISON SYMBOL	EC50
COc1ccc(Nc2nc3nonc3nc2NN=Cc2cc(Cl)ccc2O)cc1	nM	=	1620
CCOC(=O)c1nnn(-c2nonc2N)c1-c1ccc(Cl)cc1	nM	=	160
COc1cc2c3c(c4cc(OC)c(OC)cc4c2cc1OC)CN1CCC[C@@H]1C3 [TYLOPHORINE]	nM	=	963
COc1ccc(C2CC(=O)C3=C(C2)NC(C)=C(C(=O)OC2CCCC2)C3c2ccc(F)cc2)cc1 (configuration not stated)	nM	=	41.6
O=C1N=C(N2CCOCC2)S/C1=C/c1cccc2ccccc12	nM	=	329
O=C(CCl)Nc1ccc(OC(F)F)cc1	nM	=	162
COc1ccc(CNC(=O)C(Cc2c[nH]c3ccccc23)N2CCS(=O)(=O)CC2)cc1 (configuration not stated)	nM	=	784
CC(Oc1ccc(Cl)cc1Cl)c1nc(-c2ccc(NC(=O)c3cccs3)cc2)no1 (configuration not stated)	nM	=	631
CCC(C)CNC(=O)c1ccc(OC2CCN(CC3CCCCC3)CC2)c(Cl)c1 (configuration not stated)	nM	=	48.4
N#Cc1c2c(c(N3CCN(Cc4ccccc4)CC3)n3c1nc1ccccc13)CCC2	nM	=	248
CCC(CO)Nc1nccnc1-c1ccccc1Oc1ccccc1 (configuration not stated)	nM	=	3560
O=C(C1=C(O)C(=O)N(CCCn2ccnc2)C1c1ccccc1[N+](=O)[O-])c1ccccc1 (configuration not stated)	nM	=	2830
COc1ccccc1CCNCc1cc(-c2ccc(F)cc2)ccc1O	nM	=	869
CC(C)(C)NCC(O)Cn1c2ccc(I)cc2c2cc(I)ccc21 (configuration not stated)	nM	=	64
CCCOC(=O)C1=C(C)NC2=C(C(=O)CC(c3ccc(OC)cc3)C2)C1c1cccc(Cl)c1Cl (configuration not stated)	nM	=	30.8
CC1=NN(c2ccc(C(=O)O)cc2)C(=O)/C1=C\c1ccc([N+](=O)[O-])o1	nM	>	839
CCN(CC)Cc1cc(Nc2ccnc3cc(Cl)ccc23)ccc1O	nM	=	13
COCCN(CC(O)CNC(=O)c1ccc2ccccc2n1)S(=O)(=O)c1c(C)noc1C (configuration not stated)	nM	>	895
Sc1nc2ccc3nsnc3c2[nH]1	nM	=	537
Cc1ccc(C=NNC(=O)c2nnn(-c3nonc3N)c2-c2ccc([N+](=O)[O-])cc2)cc1	nM	=	503
Cc1cc(Nc2ccc(OCc3ccccc3)cc2)nc2cc(O)ccc12	nM	=	11.9
CSc1nc2nc(C)c(Cc3cccc(C(F)(F)F)c3)c(C)n2n1	nM	=	224

====

System: Plasmodium falciparum
ASSAY REMARKS: NOVARTIS: Inhibition of Plasmodium falciparum W2 (drug-resistant) proliferation in erythrocyte-based infection assay
Type: functional, organism-based
SETTINGS: Plasmodium falciparum, W2; read-out: EC50
pEC50: −log10 of the molar value.
Outcome: satisfied for pEC50 of at least 6; not satisfied for anything lower.

MOLECULE	DISCRETE LABEL
C=CCSc1ncc(-c2ccc(Cl)cc2)n1C	not satisfied
CC1CCN(C(=O)CSc2nc(NCc3ccccc3)c3ccccc3n2)CC1	not satisfied
Cc1ccc(C(=O)CSc2nc(N)c(C#N)c(-c3cccs3)c2C#N)cc1	not satisfied
CC1CCCCN1CCCNc1ncc(C(=O)NCCc2ccccc2)c(NCC2CCCO2)n1 (configuration not stated)	not satisfied
N=C1NC(=O)/C(=C/C=C/c2ccc([N+](=O)[O-])o2)S1	satisfied
CCCCOc1ccc(C(=O)N(C)CCCNc2ccnc3cc(Cl)ccc23)cc1	satisfied
O=C(Cc1cccnc1)N1CCC(Oc2ccncc2)CC1	satisfied
CCOC(=O)C1=C(C)N(c2ccc(OCC)cc2)C(=O)C1=Cc1ccc(C(C)C)cc1	not satisfied
O=C1NC(=Nc2ccccc2)/C(=C/c2ccc(O)cc2)S1	not satisfied
Cc1cc(N2CCN(C)CC2)nc2ccc(NC(=O)Nc3ccccc3Cl)cc12	not satisfied
CCc1cc(C(=O)N2CCC[C@@H]3CN(C(=O)c4ccc(F)cc4)CC[C@@H]32)n(C)n1	not satisfied
CCCCCCCCCCCC(=O)Oc1ccccc1-c1nc2ccccn2c1NC(C)(C)CC(C)(C)C	satisfied
Clc1ccc(C2Nc3ccc4ccccc4c3C3C=CCC32)c(Cl)c1 (configuration not stated)	not satisfied
Cc1cc2cc(C3C(C#N)=C(N)Oc4c3ccc3ccccc43)c(Cl)nc2cc1Cl (configuration not stated)	satisfied
COc1ccc(Nc2nc(NCc3ccco3)c3ccccc3n2)cc1	satisfied
CCN(CC)CCN1C(=O)c2ccccc2NC1c1ccc(N(C)C)cc1 (configuration not stated)	satisfied
Cc1cc(C)n(CC(O)Cn2c3ccc(I)cc3c3cc(I)ccc32)n1 (configuration not stated)	satisfied
CCOC(=O)C1=C(C)N/C(=C\c2cc(C)n(-c3ccc(C)cc3C)c2C)C1=O	not satisfied

====

System: Plasmodium falciparum
ASSAY REMARKS: NOVARTIS: Inhibition of Plasmodium falciparum W2 (drug-resistant) proliferation in erythrocyte-based infection assay
Type: functional, organism-based
SETTINGS: Plasmodium falciparum, W2; read-out: EC50
pEC50: −log10 of the molar value. Structures can show the parent of a compound that is named as a salt.
Threshold rule: pEC50 greater than or equal to 6 is Criterion met; below that, Criterion not met.

MOLECULE	DISCRETE LABEL
Fc1ccccc1CCNc1ncnc2c1[nH]c1ccccc12	Criterion met
CCOC(=O)c1c(CNc2ccncc2)n(C)c2cc(Br)c(OC(C)=O)cc12	Criterion met
CCn1ccnc1CC1COc2ccccc2O1 (centres undefined) [IMILOXAN HYDROCHLORIDE]	Criterion met
Cc1ccc(NC(=O)c2cc(C(=O)c3cc(Cl)ccc3O)cn(-c3ccc(C)c(C)c3)c2=O)cc1C	Criterion not met
N#Cc1c(NC(=O)COc2ccc(F)cc2F)sc2c1CCC2	Criterion not met
Cc1cccc(N2C(=O)C3C(C2=O)C2(c4ccccc4)C(=O)C3(c3ccccc3)C(c3ccc4c(c3)OCO4)=C2c2ccc3c(c2)OCO3)c1 (centres undefined)	Criterion met
OC(CN1CCN(C/C=C/c2ccccc2)CC1)Cn1c2ccc(Cl)cc2c2cc(Cl)ccc21 (centres undefined)	Criterion met
C[C@H]1C[C@H](C)C(=O)[C@@H]([C@@H](O)CC2CC(=O)NC(=O)C2)C1	Criterion met

====

ASSAY REMARKS: NOVARTIS: Cytotoxicity against human hepatocellular carcinoma cell line (Huh7)
Assay type: toxicity, cell-based, Huh-7
SETTINGS: Huh7 cells (hepatocellular carcinoma cell line)
Reported CC50 values follow for various compounds
MEASURED ATTRIBUTE: CC50

COMPOUND	RESULT
O=C(c1ccccc1)N1CCN(CC(O)COCc2ccccc2)CC1 (stereo not given)	> 10 µM
COc1ccc(-n2nc(C(C)(C)C)cc2NC(=O)CN(C(=O)c2ccc(C(C)(C)C)cc2)C(C)C)cc1	34.6 µM
CCCCNCCN1CCN(c2ccc(OC)cc2)C[C@@H]1c1ccccc1	> 10 µM
CCC(=O)N1CCc2cc(Br)cc(S(=O)(=O)N3CC(C)CC(C)C3)c21 (stereo not given)	> 100 µM
COC(=O)c1c(S(=O)(=O)NCCc2ccccc2)sc2c1CCN(Cc1cccnc1)C2	> 10 µM
CC[C@]1(C2OC(C3O[C@](O)(CO)[C@@H](C)C[C@H]3C)C[C@H]2C)CCC([C@@]2(C)CC[C@@]3(C[C@@H](O)[C@H](C)C([C@H](C)[C@H](OC)C(C)C(=O)O)O3)O2)O1 (stereo not given in full)	1.29 µM
CN(C)CCCNc1c2ccccc2nc2ccccc12	8.45 µM
O=C(O)/C=C\C(=O)N(C1CCCCC1)C1CCCCC1	> 10 µM
CCCCOc1ccc(N(C(C)=O)C2=C(N3CCCCC3)C(=O)c3ccccc3C2=O)cc1	54.4 µM
COc1ccc(C(=O)C(CCC(CNC(C)(C)C)C(=O)c2ccc(OC)cc2)CNC(C)(C)C)cc1 (stereo not given)	> 10 µM
COC(=O)C1=CN(Cc2ccc(Cl)cc2)C=C(C(=O)OC)C1c1ccc(Cl)c(Cl)c1	> 100 µM
c1ccc(Cc2nc(NCc3ccc4c(c3)OCO4)c3c4c(sc3n2)CCCC4)cc1	> 10 µM
c1cncc(CCNc2nccn3c(-c4ccc5ccccc5c4)cnc23)c1	34.4 µM
CCCN1CCC(N2C[C@@H](NC3CCCCCC3)C[C@H]2C(=O)NCCc2ccc3c(c2)OCO3)CC1	> 13 µM
COc1ccc(S(=O)(=O)N2CCCCC2C(=O)NC(CN2CCCC2)c2ccccc2)cc1 (stereo not given)	> 10 µM
CCCCc1ccc(NC(C)=O)cc1	4.21 µM
CCc1ccc(NC(=O)c2sc3nc4c(c(-c5ccco5)c3c2N)CCCC4)cc1	> 100 µM
O=C(Nc1cc(C(=O)N2CCC(Cc3ccccc3)CC2)ccc1N1CC2CC(C1)c1cccc(=O)n1C2)c1cccs1 (stereo not given)	49.7 µM
O=C(O)CC(c1ccc2c(c1)OCO2)N1CCS(=O)(=O)CC1 (stereo not given)	> 10 µM
Cc1ccc(C(=O)NNc2nc(Nc3ccccc3)nc(N3CCCC3)n2)cc1	> 100 µM
